Provenance of the data: patent US6255317A

Reported pIC50 values for a set of molecules
biological target: sterol 14-reductase (Rattus norvegicus, UniProt A0ACM8Q6X4); construct: to give a microsome which was used as an enzyme source of sterol 14-reductase; from tissue; assay: Sterol 14-reductase assay with rat liver microsomes (substrate 4,4-dimethyl-5α-cholesta-7,14-dien-3β-ol, GLC); type: biochemical, Sprague-Dawley rats; details: read-out: Enzyme Activity (relative in vitro activity for sterol 14-reductase, IC50 class)
Sequence (A0ACM8Q6X4 1-418): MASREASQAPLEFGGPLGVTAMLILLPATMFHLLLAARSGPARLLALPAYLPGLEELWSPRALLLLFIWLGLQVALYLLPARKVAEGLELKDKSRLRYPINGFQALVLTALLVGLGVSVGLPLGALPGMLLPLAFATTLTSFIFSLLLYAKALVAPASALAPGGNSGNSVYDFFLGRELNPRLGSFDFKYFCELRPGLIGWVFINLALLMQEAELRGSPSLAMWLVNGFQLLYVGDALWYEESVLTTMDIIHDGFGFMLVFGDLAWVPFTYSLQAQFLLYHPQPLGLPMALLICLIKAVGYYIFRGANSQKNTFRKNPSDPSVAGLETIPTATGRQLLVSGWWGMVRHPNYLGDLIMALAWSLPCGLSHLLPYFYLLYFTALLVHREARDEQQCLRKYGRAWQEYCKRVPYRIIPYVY
pIC50: −log10 of the molar value.

Completed entries (count: 4):
Task item: Quick check: pIC50 of CCCCCCCCC1c2c(ccc(OC)c2OC)C=C2c3cc4c(cc3CCN21)OCO4 (stereo not shown) ?
Reply: ≤ 4.00

Task item: I am curious: what pIC50 value has been reported for `CCc1c2[n+](cc3c(OC)c(OC)ccc13)CCc1cc(OC)c(OC)cc1-2` ?
Reply: ≥ 6.00

Task item: Field request: pIC50 | item: `CCOC(=O)c1c2[n+](cc3c(OC)c(OC)ccc13)CCc1cc(OC)c(OC)cc1-2`
Reply: ≤ 4.00

Task item: Need pIC50 of COc1ccc2c(C)c3[n+](cc2c1OC)CCc1cc(O)c(O)cc1-3 [Compound No. 2, 2,3-Dihydroxy-13-methylberberine] , thanks.
Reply: 4.00 to 5.00

Further cases:
Task item: Look at this molecule and give its reported pIC50. `COc1cc2c(cc1OC)-c1c(CC3CC3)c3ccc(OC)c(OC)c3c[n+]1CC2`
Reply: ≤ 4.00

Task item: Give its pIC50 value. Item: CCC1=C2c3cc(OC)c(OC)cc3CCN2C(CC)c2c1ccc(OC)c2OC (stereo not shown) [Compound No. 49, 8-Ethyl-13-ethyldihydropalmatine]
Reply: ≤ 4.00
